# Run Parameters: in water, 318.15 K

[
  {
    "Structure": "CC(C)C[C@H](N)C(=O)O",
    "solubility (mole fraction)": 0.00385
  }
]

---

# Run Parameters: in methanol, 288.15 K

[
  {
    "Structure": "CC(C)C[C@H](N)C(=O)O",
    "solubility (mole fraction)": 0.000588
  }
]

---

# Run Parameters: in ethanol, 318.15 K
Observation Type: solubility (mole fraction)

[
  {
    "Structure": "CC(C)C[C@H](N)C(=O)O",
    "Assay Value": 0.000286
  }
]

---

# Run Parameters: in n-propanol, 293.15 K

[
  {
    "Structure": "CC(C)C[C@H](N)C(=O)O",
    "solubility (mole fraction)": 0.000123
  }
]
